Molecular target: pre-pro-insulin glargine
readout: desArg

Here are 4 proteins together with their reported answers.
trypsin variant SEQ ID NO: 80 (protein) IVGGYTCAANSIPYQVSLNSGSHRCGGSLINSQWVVSAAHCYKSRIQVRLGEHNIHVLEGNEQFINAAKIITHPNFNPNTLDNDIMLIKLSSPATLNSHVATVSLPTSCAAAGTECLISGWGNTSSSGSSMPSLLQCLKAPVLSDSSCKSSYPGQITGNMICVGFLEGGKDACQGDSGGPVVCNGQLQGIVSSGYGCAQKNKPGVYTKVCNYVNWIQQTIAAN | 0.9 area %
trypsin variant SEQ ID NO: 110 (protein) IVGGYTCAANSIPYQVSLNSGSHRCGGSLINSQWVVSAAHCYKSRIQVRLGEHNIHVLEGNEQFINAAKIITHPNFNPNTLDNDIMLIKLSSPATLNSHVATVSLPRSCAAAGTECLISGWGNTCSSGSSMPSLLQCLKAPVLSDSSCKSSYPGQITGNMICVGFLEGGADACQGDSGGPVVCNGQLQGIVSSGYGCAQKNKPGVYTKVCNYVNWIQQTIAAN | 0.9 area %
trypsin variant SEQ ID NO: 53 (protein) IVGGYTCAANSIPYQVSLNSGSHRCGGSLINSQWVVSAAHCYKPRIQVRLGEHNIDVLEGNEQFINAAKIITHPNFNGNTLDNDIMLIKLSSPATLNSRVATVSLPRSCAAAGTECLISGWGNTKSSGSSYPSLLQCLKAPVLSDSSCKSSYPGQITGNMICVGFLEGGKDACQGDSGGPVVCNGQLQGIVSSGYGCAQKNKPGVYTKVCNYVNWIQQTIAAN | < 0.5 area %
trypsin variant SEQ ID NO: 96 (protein) IVGGYTCAANSIPYQVSLNSGSHRCGGSLINSQWVVSAAHCYKPRIQVRLGEHNIDVLEGNEQFINAAKIITHPNFNPNTLDNDIMLIKLSSPATLNSHVATVSLPRSCAAAGTECLISGWGNTSSSGSSMPSLLQCLKAPVLSDSSCKSSYPGQITGNMICVGFLEGGADACQGDSGGPVVCNGQLQGIVSSGYGCAQKNKPGVYTKVCNYVNWIQQTIAAN | 0.7 area %

Bench note: what desArg did trypsin variant SEQ ID NO: 107 (protein) IVGGYTCAANSIPYQVSLNSGSHRCGGSLINSQWVVSAAHCYKPRIQVRLGEHNIHVLEGNEQFINAAKIITHPNFNPNTLDNDIMLIKLSSPATLNSHVATVSLPTSCAAAGTECLISGWGNTCSSGSSMPSLLQCLKAPVLSDSSCKSSYPGQITGNMICVGFLEGGADACQGDSGGPVVCNGQLQGIVSSGYGCAQKNKPGVYTKVCNYVNWIQQTIAAN show?
0.4 area %
